target: Cytochrome P450 3A4 (Homo sapiens); assay: Inhibition of CYP3A4 using 7-benzyloxyquinoline as substrate; assay type: ADME
Sequence (P08684 whole entry): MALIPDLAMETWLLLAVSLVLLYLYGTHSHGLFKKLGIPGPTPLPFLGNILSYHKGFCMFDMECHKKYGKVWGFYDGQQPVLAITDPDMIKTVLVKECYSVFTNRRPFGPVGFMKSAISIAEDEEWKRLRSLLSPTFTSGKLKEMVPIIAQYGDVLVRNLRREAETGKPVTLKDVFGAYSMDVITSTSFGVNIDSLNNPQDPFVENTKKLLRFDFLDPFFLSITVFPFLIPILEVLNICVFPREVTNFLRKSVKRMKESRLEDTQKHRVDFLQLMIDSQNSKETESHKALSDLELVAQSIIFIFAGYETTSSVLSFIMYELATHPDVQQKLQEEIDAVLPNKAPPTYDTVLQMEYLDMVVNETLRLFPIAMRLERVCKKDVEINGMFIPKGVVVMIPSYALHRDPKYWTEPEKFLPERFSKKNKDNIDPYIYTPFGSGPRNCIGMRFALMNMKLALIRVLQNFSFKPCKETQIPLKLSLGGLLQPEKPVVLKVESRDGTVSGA
pIC50: −log10 of the molar value.
MEASUREMENT NAME: pIC50

INSERT INTO measurements (smiles_record, test_target, measurement_name, observed_result) VALUES
  ('CC[C@@H](NC(=O)c1ccc2c(c1)ncn2Cc1ncc(F)cc1F)c1ccccc1', 'Cytochrome P450 3A4 (Homo sapiens)', 'pIC50', '< 4.00');

====

biological target: Peroxisome proliferator-activated receptor gamma (Homo sapiens) (UniProt P37231); test: Activity at human PPARgamma by luciferase reporter gene assay; parameters: concentration or dose not given beside the values
Sequence (P37231 whole entry): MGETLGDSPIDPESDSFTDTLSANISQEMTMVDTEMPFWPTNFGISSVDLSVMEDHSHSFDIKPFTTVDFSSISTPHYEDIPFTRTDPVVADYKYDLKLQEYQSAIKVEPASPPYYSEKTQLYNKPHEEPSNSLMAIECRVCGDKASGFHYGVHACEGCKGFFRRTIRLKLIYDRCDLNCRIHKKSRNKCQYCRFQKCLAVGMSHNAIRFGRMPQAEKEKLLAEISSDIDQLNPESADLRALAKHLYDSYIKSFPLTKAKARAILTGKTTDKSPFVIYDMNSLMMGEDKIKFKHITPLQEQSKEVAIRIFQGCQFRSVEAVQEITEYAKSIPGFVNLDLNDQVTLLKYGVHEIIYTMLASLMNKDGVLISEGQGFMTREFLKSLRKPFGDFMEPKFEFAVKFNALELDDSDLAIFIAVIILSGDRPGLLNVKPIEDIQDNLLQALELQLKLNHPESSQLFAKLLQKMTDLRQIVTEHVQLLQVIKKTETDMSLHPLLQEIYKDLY
Param label: returns rule met when Activity < 70%, returns rule not met otherwise, including exact equality.

INSERT INTO assay_data (molecule, label_value) VALUES
  ('CC[C@@H](NC(=O)c1ccc2c(c1)ncn2Cc1ccccc1OC)c1ccccc1', 'rule not met'),
  ('CC[C@@H](NC(=O)c1ccc2c(c1)ncn2Cc1ncccc1Cl)c1ccccc1', 'rule not met'),
  ('CC[C@@H](NC(=O)c1ccc2c(c1)nc(C)n2Cc1cccc(Cl)c1)c1ccccc1', 'rule not met'),
  ('CC[C@@H](NC(=O)c1ccc2c(c1)nc(C)n2Cc1ccccc1Cl)c1ccccc1', 'rule not met'),
  ('CC[C@@H](NC(=O)c1ccc2c(c1)nc(C)n2Cc1ccc(Cl)c(Cl)c1)c1ccccc1', 'rule not met'),
  ('Cc1nc2cc(C(=O)N[C@H](C)c3ccccc3)ccc2n1Cc1ccc(Cl)c(Cl)c1', 'rule not met'),
  ('CCC(NC(=O)c1ccc2c(c1)nc(C)n2Cc1ccc(Cl)c(Cl)c1)c1ccccc1 (stereo not drawn)', 'rule met'),
  ('CC[C@@H](NC(=O)c1ccc2c(c1)nc(C)n2Cc1ccc(F)cc1)c1ccccc1', 'rule not met'),
  ('CC[C@@H](NC(=O)c1ccc2c(c1)ncn2Cc1ccncc1)c1ccccc1', 'rule met'),
  ('CC[C@@H](NC(=O)c1ccc2c(c1)ncn2Cc1ccccc1S(C)(=O)=O)c1ccccc1', 'rule not met'),
  ('CCc1nc2cc(C(=O)N[C@H](CC)c3ccccc3)ccc2n1Cc1ccc(Cl)c(Cl)c1', 'rule met'),
  ('Cc1nc2cc(C(=O)NCc3ccccc3)ccc2n1Cc1ccc(Cl)c(Cl)c1', 'rule not met'),
  ('CC[C@@H](NC(=O)c1ccc2c(c1)nc(C)n2Cc1ccc(C(N)=O)cc1)c1ccccc1', 'rule met'),
  ('CC[C@@H](NC(=O)c1ccc2c(c1)ncn2Cc1ccc(Cl)cn1)c1ccccc1', 'rule not met'),
  ('CC[C@@H](NC(=O)c1ccc2c(c1)nc(C1CC1)n2Cc1ccc(Cl)c(Cl)c1)c1ccccc1', 'rule met'),
  ('CC[C@@H](NC(=O)c1ccc2c(c1)nc(C)n2Cc1ccc(S(C)(=O)=O)cc1)c1ccccc1', 'rule met'),
  ('CC[C@@H](NC(=O)c1ccc2c(c1)ncn2Cc1ccc(F)cc1F)c1ccccc1', 'rule not met'),
  ('CC[C@@H](NC(=O)c1ccc2c(c1)ncn2Cc1ccccc1F)c1ccccc1', 'rule not met'),
  ('CC[C@@H](NC(=O)c1ccc2c(c1)ncn2Cc1ccc(Cl)cc1)c1ccccc1', 'rule not met'),
  ('CC[C@@H](NC(=O)c1ccc2c(c1)ncn2Cc1ccc(Cl)cc1Cl)c1ccccc1', 'rule not met'),
  ('CC[C@@H](NC(=O)c1ccc2c(c1)nc(C)n2Cc1ccc(Cl)cc1)c1ccccc1', 'rule met'),
  ('CC[C@@H](NC(=O)c1ccc2c(c1)nc(C(C)C)n2Cc1ccc(Cl)c(Cl)c1)c1ccccc1', 'rule met'),
  ('CC[C@@H](NC(=O)c1ccc2c(c1)ncn2Cc1cccnc1)c1ccccc1', 'rule not met'),
  ('CC[C@@H](NC(=O)c1ccc2c(c1)ncn2Cc1ccc(Cl)cc1F)c1ccccc1', 'rule not met'),
  ('Cc1nc2cc(C(=O)N[C@@H](C)c3ccccc3)ccc2n1Cc1ccc(Cl)c(Cl)c1', 'rule met'),
  ('CCC(=O)c1nc2cc(C(=O)N[C@H](CC)c3ccccc3)ccc2n1Cc1ccc(Cl)c(Cl)c1', 'rule not met');

====

target: Peroxisome proliferator-activated receptor gamma (Homo sapiens, UniProt P37231); test: Partial agonist activity at human PPARgamma by luciferase reporter gene assay
pEC50: −log10 of the molar value.
MEASUREMENT NAME: pEC50

INSERT INTO measurements (molecule, measurement_name, observed_result) VALUES
  ('CCC(NC(=O)c1ccc2c(c1)nc(C)n2Cc1ccc(Cl)c(Cl)c1)c1ccccc1 (stereo not drawn)', 'pEC50', 7.30),
  ('CC[C@@H](NC(=O)c1ccc2c(c1)nc(C1CC1)n2Cc1ccc(Cl)c(Cl)c1)c1ccccc1', 'pEC50', 6.90),
  ('CC[C@@H](NC(=O)c1ccc2c(c1)ncn2Cc1ncc(F)cc1F)c1ccccc1', 'pEC50', 8.00),
  ('CC[C@@H](NC(=O)c1ccc2c(c1)ncn2Cc1ccc(Cl)cc1)c1ccccc1', 'pEC50', 8.50),
  ('CC[C@@H](NC(=O)c1ccc2c(c1)nc(C)n2Cc1ccc(C(N)=O)cc1)c1ccccc1', 'pEC50', 5.00),
  ('CC[C@@H](NC(=O)c1ccc2c(c1)nc(C)n2Cc1cccc(Cl)c1)c1ccccc1', 'pEC50', 7.10),
  ('CC[C@@H](NC(=O)c1ccc2c(c1)ncn2Cc1ccccc1OC)c1ccccc1', 'pEC50', 8.30),
  ('Cc1nc2cc(C(=O)N[C@@H](C)c3ccccc3)ccc2n1Cc1ccc(Cl)c(Cl)c1', 'pEC50', 6.20),
  ('CC[C@@H](NC(=O)c1ccc2c(c1)ncn2Cc1ccccc1S(C)(=O)=O)c1ccccc1', 'pEC50', 6.40),
  ('CC[C@@H](NC(=O)c1ccc2c(c1)ncn2Cc1ccc(F)c(Cl)c1)c1ccccc1', 'pEC50', 8.20),
  ('CC[C@@H](NC(=O)c1ccc2c(c1)ncn2Cc1ccc(F)cc1F)c1ccccc1', 'pEC50', 8.80),
  ('CC[C@@H](NC(=O)c1ccc2c(c1)ncn2Cc1cccnc1)c1ccccc1', 'pEC50', 6.30),
  ('CC[C@@H](NC(=O)c1ccc2c(c1)nc(C(F)(F)F)n2Cc1ccc(Cl)c(Cl)c1)c1ccccc1', 'pEC50', 6.60),
  ('CC[C@@H](NC(=O)c1ccc2c(c1)nc(C)n2Cc1ccccc1Cl)c1ccccc1', 'pEC50', 7.30),
  ('CC[C@@H](NC(=O)c1ccc2c(c1)ncn2Cc1ccc(Cl)cn1)c1ccccc1', 'pEC50', 7.40),
  ('CC[C@@H](NC(=O)c1ccc2c(c1)ncn2Cc1ncc(Cl)cc1Cl)c1ccccc1', 'pEC50', 9.30),
  ('CC[C@@H](NC(=O)c1ccc2c(c1)nc(C)n2Cc1ccc(Cl)c(Cl)c1)c1ccccc1', 'pEC50', 7.40),
  ('Cc1nc2cc(C(=O)N[C@H](C)c3ccccc3)ccc2n1Cc1ccc(Cl)c(Cl)c1', 'pEC50', 7.30),
  ('CC[C@@H](NC(=O)c1ccc2c(c1)nc(C(C)C)n2Cc1ccc(Cl)c(Cl)c1)c1ccccc1', 'pEC50', 6.40),
  ('CC[C@@H](NC(=O)c1ccc2c(c1)nc(C)n2Cc1ccc(Cl)cc1)c1ccccc1', 'pEC50', 7.50),
  ('CC[C@@H](NC(=O)c1ccc2c(c1)ncn2Cc1ncccc1Cl)c1ccccc1', 'pEC50', 7.80),
  ('CC[C@@H](NC(=O)c1ccc2c(c1)ncn2Cc1ccc(Cl)cc1F)c1ccccc1', 'pEC50', 9.10),
  ('CC[C@@H](NC(=O)c1ccc2c(c1)ncn2Cc1ccccn1)c1ccccc1', 'pEC50', 6.90),
  ('CC[C@@H](NC(=O)c1ccc2c(c1)nc(C)n2Cc1ccc(F)cc1)c1ccccc1', 'pEC50', 6.80),
  ('CC[C@@H](NC(=O)c1ccc2c(c1)ncn2Cc1ccc(Cl)c(Cl)c1)c1ccccc1', 'pEC50', 8.60),
  ('CC[C@@H](NC(=O)c1ccc2c(c1)nc(C)n2Cc1ccc(S(C)(=O)=O)cc1)c1ccccc1', 'pEC50', 5.30),
  ('Cc1nc2cc(C(=O)NCc3ccccc3)ccc2n1Cc1ccc(Cl)c(Cl)c1', 'pEC50', 6.40),
  ('CCC(=O)c1nc2cc(C(=O)N[C@H](CC)c3ccccc3)ccc2n1Cc1ccc(Cl)c(Cl)c1', 'pEC50', 7.10),
  ('CC[C@@H](NC(=O)c1ccc2c(c1)ncn2Cc1ccc(Cl)cc1Cl)c1ccccc1', 'pEC50', 9.30),
  ('CC[C@H](NC(=O)c1ccc2c(c1)nc(C)n2Cc1ccc(Cl)c(Cl)c1)c1ccccc1', 'pEC50', 6.60),
  ('CC[C@@H](NC(=O)c1ccc2c(c1)ncn2Cc1ccccc1F)c1ccccc1', 'pEC50', 8.10),
  ('CC[C@@H](NC(=O)c1ccc2c(c1)ncn2Cc1ccncc1)c1ccccc1', 'pEC50', 6.10),
  ('CCc1nc2cc(C(=O)N[C@H](CC)c3ccccc3)ccc2n1Cc1ccc(Cl)c(Cl)c1', 'pEC50', 6.70);
